ASSAY_TEXT: AUC in Swiss mice (Mus musculus) infected with Plasmodium berghei ANKA at 90 mg/kg, intraperitoneally administered 64 hrs after infection
Format: ADME, organism-based
Set-up: dose 90 mg/kg, route intraperitoneal
CONDITIONS_USED: plasma, ip
REPORTED_PROPERTY: AUC at 64 h (ng·h/mL)
Express your answer in ng·h/mL, writing the number without its unit.

*Q* Provide only the value of recorded AUC at 64 h for "Clc1ccc2c(N3CCN(CCCN4CCN(c5ccnc6cc(Cl)ccc56)CC4)CC3)ccnc2c1"
*A* 27300

###

ASSAY_TEXT: Initial half life in Swiss mice (Mus musculus) infected with Plasmodium berghei ANKA at 90 mg/kg, intraperitoneally by two compartment model assay
Format: ADME, organism-based
Parameters: dose 90 mg/kg, route intraperitoneal
CONDITIONS_USED: in vivo, ip, read-out: alphat1/2 (converted)
REPORTED_PROPERTY: half-life
Include the unit right after the number.

*Q* Provide only the value of recorded half-life for Clc1ccc2c(N3CCN(CCCN4CCN(c5ccnc6cc(Cl)ccc56)CC4)CC3)ccnc2c1 [PIPERAQUINE]
*A* 8.4 h

###

ASSAY_TEXT: Terminal half life in healthy Swiss mouse at 90 mg/kg, ip by two compartment model assay
Type: ADME, organism-based
Parameters: dose 90 mg/kg, route intraperitoneal
CONDITIONS_USED: in vivo, read-out: beta t1/2 (converted)
REPORTED_PROPERTY: half-life (days)
Express your answer in days, writing the number without its unit.

*Q* Provide only the value of recorded half-life for Clc1ccc2c(N3CCN(CCCN4CCN(c5ccnc6cc(Cl)ccc56)CC4)CC3)ccnc2c1 [PIPERAQUINE]
*A* 20.7

###

ASSAY_TEXT: Terminal half life in adult human
Format: ADME, organism-based
CONDITIONS_USED: in vivo, read-out: beta t1/2 (converted)
REPORTED_PROPERTY: half-life (days)
Express your answer in days, writing the number without its unit.

*Q* Provide only the value of recorded half-life for "Clc1ccc2c(N3CCN(CCCN4CCN(c5ccnc6cc(Cl)ccc56)CC4)CC3)ccnc2c1"
*A* 23

###

ASSAY_TEXT: Plasma concentration in Swiss mice (Mus musculus) infected with Plasmodium berghei ANKA at 90 mg/kg, intraperitoneally administered 64 hrs after infection measured after 36 hrs
Format: ADME, organism-based
Design: dose 90 mg/kg, route intraperitoneal
CONDITIONS_USED: ip
REPORTED_PROPERTY: concentration at 36 h (ng/mL)
Express your answer in ng/mL, writing the number without its unit.

*Q* Provide only the value of recorded concentration at 36 h for "Clc1ccc2c(N3CCN(CCCN4CCN(c5ccnc6cc(Cl)ccc56)CC4)CC3)ccnc2c1"
*A* 45

###

ASSAY_TEXT: Initial half life in healthy Swiss mouse at 90 mg/kg, ip by two compartment model assay
Assay type: ADME, organism-based
Set-up: dose 90 mg/kg, route intraperitoneal
CONDITIONS_USED: in vivo, read-out: alphat1/2 (converted)
REPORTED_PROPERTY: half-life (h)
Express your answer in h, writing the number without its unit.

*Q* Provide only the value of recorded half-life for Clc1ccc2c(N3CCN(CCCN4CCN(c5ccnc6cc(Cl)ccc56)CC4)CC3)ccnc2c1 [PIPERAQUINE]
*A* 14.2

###

ASSAY_TEXT: Apparent clearance in healthy Swiss mouse at 90 mg/kg, ip
Assay type: ADME, organism-based
Parameters: dose 90 mg/kg, route intraperitoneal
CONDITIONS_USED: in vivo
REPORTED_PROPERTY: CL/F (mL/min/kg)
Express your answer in mL/min/kg, writing the number without its unit.

*Q* Provide only the value of recorded CL/F for "Clc1ccc2c(N3CCN(CCCN4CCN(c5ccnc6cc(Cl)ccc56)CC4)CC3)ccnc2c1"
*A* 25.8

###

ASSAY_TEXT: Toxicity in mouse
Assay type: organism-based
CONDITIONS_USED: in vivo
REPORTED_PROPERTY: LD50
Include the unit right after the number.

*Q* Provide only the value of recorded LD50 for "Clc1ccc2c(N3CCN(CCCN4CCN(c5ccnc6cc(Cl)ccc56)CC4)CC3)ccnc2c1"
*A* 1100 mg/kg

###

ASSAY_TEXT: Plasma concentration in Swiss mice (Mus musculus) infected with Plasmodium berghei ANKA at 90 mg/kg, intraperitoneally administered 64 hrs after infection measured after 30 days
Format: ADME, organism-based
Set-up: dose 90 mg/kg, route intraperitoneal
CONDITIONS_USED: ip
REPORTED_PROPERTY: concentration at 720 h

*Q* Provide only the value of recorded concentration at 720 h for Clc1ccc2c(N3CCN(CCCN4CCN(c5ccnc6cc(Cl)ccc56)CC4)CC3)ccnc2c1 [PIPERAQUINE]
*A* > 10 ng/mL

###

ASSAY_TEXT: Apparent clearance in Swiss mice (Mus musculus) infected with Plasmodium berghei ANKA at 90 mg/kg, intraperitoneally administered 64 hrs after infection
Format: ADME, organism-based
Design: dose 90 mg/kg, route intraperitoneal
CONDITIONS_USED: in vivo, ip
REPORTED_PROPERTY: CL/F (mL/min/kg)
Express your answer in mL/min/kg, writing the number without its unit.

*Q* Provide only the value of recorded CL/F for "Clc1ccc2c(N3CCN(CCCN4CCN(c5ccnc6cc(Cl)ccc56)CC4)CC3)ccnc2c1"
*A* 31.7
